system: Plasmodium berghei; assay: Screen against P. berghei liver stage (PbLuc), transformed with Luciferase, at 10uM; assay type: functional, HepG2; settings: tested at 10 uM
Hit rate of the full screen: of about 69,000 compounds, about 8,600 (12%) showed an effect of 50% or more. The sample as a whole holds a higher share of strong results than the screen did.
I'd appreciate it if you marked entries 1.0 when INHIBITION is lower than 30% and 0.0 when it is not.

>  <compound>
Cc1cccc(CC2COCCN(Cc3nccn3C)C2)n1 (stereo unspecified)

>  <assigned-class>
1.0

$$$$
>  <compound>
O=C(NCc1ccco1)[C@H]1CC[C@@H]2[C@@H](CCN2Cc2cccnc2)O1

>  <assigned-class>
1.0

$$$$
>  <compound>
CCOCC(=O)N(C)Cc1nc(C(F)(F)F)cs1

>  <assigned-class>
1.0

$$$$
>  <compound>
O=C(NCc1cccs1)[C@H]1CC[C@@H]2[C@@H](CCN2c2ncccn2)O1

>  <assigned-class>
1.0

$$$$
>  <compound>
Cc1[nH]c2ccc(C(=O)N3C[C@@H](O)[C@H](N4CCOCC4)C3)cc2c1C

>  <assigned-class>
1.0

$$$$
>  <compound>
O=C(NCc1ccco1)[C@@]12CCO[C@@H]1CCN(c1ncccn1)C2

>  <assigned-class>
1.0

$$$$
>  <compound>
CC(C)CC(=O)N(C)Cc1nc(C(F)(F)F)cs1

>  <assigned-class>
0.0

$$$$
>  <compound>
O=C(NCc1cccnc1)[C@@H]1C[C@@H]2CCN(c3ncc(F)cn3)C[C@@H]2O1

>  <assigned-class>
1.0

$$$$
>  <compound>
c1ccc(COC2C[C@@H]3CN(Cc4cncnc4)C[C@@H]3C2)cc1 (stereo partly specified)

>  <assigned-class>
1.0

$$$$
>  <compound>
CCOc1ncnc2c1CCN(C(=O)c1cnccn1)CC2

>  <assigned-class>
1.0

$$$$
>  <compound>
O=C(c1ccncc1F)N1CCc2ncnc(-c3ccncc3)c2CC1

>  <assigned-class>
1.0

$$$$
>  <compound>
CC(C)Nc1ncnc2c1CCN(C(=O)c1ccccc1F)CC2

>  <assigned-class>
0.0

$$$$
>  <compound>
O=C(Cc1ccccc1Cl)Nc1cc(N2CCCC2)ncn1

>  <assigned-class>
1.0

$$$$
>  <compound>
Cc1ncnc2c1CCN(C(=O)c1ccnnc1)CC2

>  <assigned-class>
0.0

$$$$
>  <compound>
Cc1ncnc2c1CCN(C(=O)c1ccncc1F)CC2

>  <assigned-class>
0.0

$$$$
>  <compound>
O=C(NCc1cccnc1)[C@@H]1CC[C@@H]2[C@@H](CCN2c2ncc(F)cn2)O1

>  <assigned-class>
0.0

$$$$
>  <compound>
O=C(NCc1cccnc1)[C@@H]1CC[C@@H]2[C@@H](CCN2c2ncccn2)O1

>  <assigned-class>
0.0

$$$$
>  <compound>
O=C(NCc1cccnc1)[C@@H]1C[C@H]2[C@H](CCN2c2ncc(F)cn2)O1

>  <assigned-class>
1.0

$$$$
>  <compound>
O=C(NCc1cccs1)[C@@H]1CC[C@@H]2[C@@H](CCN2c2ncccn2)O1

>  <assigned-class>
1.0

$$$$
>  <compound>
O=C(NCc1cccnc1)[C@@H]1C[C@H]2[C@H](CCN2c2ncccn2)O1

>  <assigned-class>
0.0

$$$$
>  <compound>
O=C(NCc1cccnc1)[C@H]1CC[C@@H]2[C@@H](CCN2c2ncccn2)O1

>  <assigned-class>
0.0

$$$$
